// bioavailability lookup, one value per entry
Assay: Oral bioavailability in rat (Sprague-Dawley) (dose 1 mg/kg i.v.)
Type: ADME, organism-based
Conditions: in vivo, 2 mg/kg
The reply should contain only the number, in %.

Known results for compounds:
> print(dat)
                                   compound  reading
1  COc1cccc(OC)c1-c1ccc(C[C@H](NC(=O)[C@@H]2CCCN2c2ccccc2)C(=O)O)cc1       14
2  COc1cccc(OC)c1-c1ccc(CC(NC(=O)C2(c3ccccc3)CCCC2)C(=O)O)cc1 (centres undefined)       55
3  COc1cccc(N2CCC[C@H]2C(=O)N[C@@H](Cc2ccc(-c3c(OC)cccc3OC)cc2)C(=O)O)c1        3
4  COc1cccc(OC)c1-c1ccc(CC(NC(=O)C2(S(=O)(=O)c3ccccc3)CCCC2)C(=O)O)cc1 (centres undefined)       22
5  COc1cccc(OC)c1-c1ccc(C[C@H](NC(=O)[C@@H]2CCCN2c2ccccn2)C(=O)O)cc1        2

Could you tell me which bioavailability is on file for COc1cccc(OC)c1-c1ccc(CC(NC(=O)C2CCCN2S(=O)(=O)c2ccccc2)C(=O)O)cc1 (centres undefined) ? 2

---

Biological target: Integrin alpha-4/beta-7 (Homo sapiens, UniProt P13612+P26010)
Sequence (P13612 whole entry): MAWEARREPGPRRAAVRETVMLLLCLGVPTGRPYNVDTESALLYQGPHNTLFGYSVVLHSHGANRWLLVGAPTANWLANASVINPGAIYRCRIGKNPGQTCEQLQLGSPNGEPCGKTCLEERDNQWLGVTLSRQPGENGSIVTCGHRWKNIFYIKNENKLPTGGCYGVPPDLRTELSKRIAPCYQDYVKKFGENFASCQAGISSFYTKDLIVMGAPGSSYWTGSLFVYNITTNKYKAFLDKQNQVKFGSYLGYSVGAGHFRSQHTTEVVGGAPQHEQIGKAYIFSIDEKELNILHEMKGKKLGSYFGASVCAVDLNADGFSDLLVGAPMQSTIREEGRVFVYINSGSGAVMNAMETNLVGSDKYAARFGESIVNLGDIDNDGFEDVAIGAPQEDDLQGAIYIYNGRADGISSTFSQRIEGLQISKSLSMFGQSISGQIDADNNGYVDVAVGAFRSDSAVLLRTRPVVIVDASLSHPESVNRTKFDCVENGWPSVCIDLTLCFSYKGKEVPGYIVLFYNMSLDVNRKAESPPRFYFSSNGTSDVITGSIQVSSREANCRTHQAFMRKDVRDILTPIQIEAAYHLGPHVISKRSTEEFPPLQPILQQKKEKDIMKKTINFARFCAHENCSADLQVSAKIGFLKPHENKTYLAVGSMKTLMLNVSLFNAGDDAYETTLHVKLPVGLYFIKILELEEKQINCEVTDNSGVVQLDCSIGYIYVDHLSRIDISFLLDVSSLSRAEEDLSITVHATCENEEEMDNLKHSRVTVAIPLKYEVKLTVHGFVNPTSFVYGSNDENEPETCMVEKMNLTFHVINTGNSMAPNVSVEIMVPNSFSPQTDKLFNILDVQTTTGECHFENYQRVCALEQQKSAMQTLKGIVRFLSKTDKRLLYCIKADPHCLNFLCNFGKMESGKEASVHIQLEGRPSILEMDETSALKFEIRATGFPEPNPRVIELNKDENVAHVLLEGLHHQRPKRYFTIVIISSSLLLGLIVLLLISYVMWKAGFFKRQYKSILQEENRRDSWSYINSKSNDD
Sequence (P26010 whole entry): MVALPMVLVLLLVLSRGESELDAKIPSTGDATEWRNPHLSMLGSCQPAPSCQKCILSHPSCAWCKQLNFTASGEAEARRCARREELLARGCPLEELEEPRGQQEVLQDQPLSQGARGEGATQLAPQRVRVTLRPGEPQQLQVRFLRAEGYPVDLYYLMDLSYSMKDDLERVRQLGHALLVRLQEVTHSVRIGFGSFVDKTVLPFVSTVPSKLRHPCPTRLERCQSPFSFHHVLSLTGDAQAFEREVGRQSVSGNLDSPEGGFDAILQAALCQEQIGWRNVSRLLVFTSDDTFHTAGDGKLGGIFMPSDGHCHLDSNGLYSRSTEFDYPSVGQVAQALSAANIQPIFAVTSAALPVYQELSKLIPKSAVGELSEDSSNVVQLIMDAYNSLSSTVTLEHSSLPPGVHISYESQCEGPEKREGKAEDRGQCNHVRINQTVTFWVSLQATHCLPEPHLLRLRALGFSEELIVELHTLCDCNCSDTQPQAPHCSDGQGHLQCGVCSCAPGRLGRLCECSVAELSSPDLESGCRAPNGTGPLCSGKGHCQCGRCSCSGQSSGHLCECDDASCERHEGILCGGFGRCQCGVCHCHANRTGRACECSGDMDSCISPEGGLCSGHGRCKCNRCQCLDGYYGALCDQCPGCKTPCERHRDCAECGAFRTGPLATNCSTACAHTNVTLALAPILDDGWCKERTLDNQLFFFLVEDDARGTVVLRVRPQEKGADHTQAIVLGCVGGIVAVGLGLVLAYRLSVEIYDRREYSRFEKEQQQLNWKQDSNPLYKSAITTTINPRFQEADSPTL
Assay: Inhibition of [125I]MAdCAM-Ig binding to human integrin alpha4-beta7 of RPMI-8866 cells
// pIC50 lookup, one value per entry
API: returns pIC50 as number; meaning -log10 of concentration in mol/L.

> print(dat)
                                   molecule  experimental.endpoint  reading
1  COc1cccc(OC)c1-c1ccc(CC(NC(=O)C2(c3ccccc3)CCCC2)C(=O)O)cc1 (stereo not drawn)                  pIC50     6.96
2  COc1cccc(OC)c1-c1ccc(C[C@H](NC(=O)[C@@H]2CCCN2c2cnccn2)C(=O)O)cc1                  pIC50     8.05
3  COc1cccc(OC)c1-c1ccc(C[C@H](NC(=O)[C@@H]2CCCN2c2ccccc2C#N)C(=O)O)cc1                  pIC50     8.46
4  COc1cccc(N2CCC[C@H]2C(=O)N[C@@H](Cc2ccc(-c3c(OC)cccc3OC)cc2)C(=O)O)c1                  pIC50     8.24
5  COc1cccc(OC)c1-c1ccc(C[C@H](NC(=O)[C@@H]2CCCN2c2ccccc2)C(=O)O)cc1                  pIC50     7.68

Could you tell me which pIC50 is on file for COc1cccc(OC)c1-c1ccc(C[C@H](NC(=O)[C@@H]2CCCN2c2cccnc2)C(=O)O)cc1 ? 8.26

Repeat with COc1cccc(OC)c1-c1ccc(C[C@H](NC(=O)[C@@H]2CCCN2c2ccc([N+](=O)[O-])cc2)C(=O)O)cc1 7.77

Repeat with COc1cccc(OC)c1-c1ccc(C[C@H](NC(=O)[C@@H]2CCCN2c2cncnc2)C(=O)O)cc1 7.73

---

Assay: Oral bioavailability in rat (Sprague-Dawley) (dose 1 mg/kg i.v.)
Assay type: ADME, organism-based
Conditions: in vivo, 2 mg/kg
experimental-endpoint: bioavailability

Known results for compounds:
> print(dat)
                                chem.smiles  reading
1  COc1cccc(OC)c1-c1ccc(C[C@H](NC(=O)[C@@H]2CCCN2c2ccc([N+](=O)[O-])cc2)C(=O)O)cc1     < 1%
2  COc1cccc(OC)c1-c1ccc(C[C@H](NC(=O)[C@@H]2CCCN2c2ccccc2C#N)C(=O)O)cc1     < 1%

Now for another entry.
Could you tell me which bioavailability is on file for COc1cccc(OC)c1-c1ccc(C[C@H](NC(=O)[C@@H]2CCCN2c2cccnc2)C(=O)O)cc1 ? < 1%

Provenance of the data: ChEMBL document CHEMBL1134871
